assay: Metabolic stability in rat liver microsomes; type: in vitro ADME; settings: male, rat, microsomes, pH 7.4, in vitro t1/2
VALUE KIND: half-life at 1 µM (min)

INSERT INTO results (chemical_smiles, observed_measurement) VALUES
  ('C[C@H](Nc1ncnc(N)c1C#N)c1cc2ncc(Cl)n2nc1-c1ccccc1', 37.9);

----------
Molecular target: OATP1B1 (Homo sapiens, UniProt Q9Y6L6)
Sequence (Q9Y6L6 1-691): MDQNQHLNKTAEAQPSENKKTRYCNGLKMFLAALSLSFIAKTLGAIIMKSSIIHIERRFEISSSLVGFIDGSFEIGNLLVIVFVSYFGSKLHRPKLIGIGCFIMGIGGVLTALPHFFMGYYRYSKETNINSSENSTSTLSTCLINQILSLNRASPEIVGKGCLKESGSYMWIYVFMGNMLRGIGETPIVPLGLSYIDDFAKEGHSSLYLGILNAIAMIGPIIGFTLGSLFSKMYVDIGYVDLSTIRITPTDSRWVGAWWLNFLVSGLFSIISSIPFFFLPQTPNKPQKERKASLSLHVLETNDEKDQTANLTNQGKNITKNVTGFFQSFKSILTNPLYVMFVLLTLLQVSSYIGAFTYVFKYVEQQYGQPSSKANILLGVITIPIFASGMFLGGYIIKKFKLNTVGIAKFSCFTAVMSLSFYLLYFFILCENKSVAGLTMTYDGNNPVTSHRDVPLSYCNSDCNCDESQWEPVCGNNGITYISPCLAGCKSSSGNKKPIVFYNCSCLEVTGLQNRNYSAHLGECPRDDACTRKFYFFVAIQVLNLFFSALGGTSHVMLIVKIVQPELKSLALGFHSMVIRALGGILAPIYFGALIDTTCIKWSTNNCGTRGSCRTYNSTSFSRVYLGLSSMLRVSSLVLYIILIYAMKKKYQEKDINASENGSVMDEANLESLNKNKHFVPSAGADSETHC
Experiment: in vitro
Settings: human, pH 7.4
VALUE KIND: inhibition at 2 min, 3 µM (%)

INSERT INTO assay_data (compound, reading_unit, observed_measurement) VALUES
  ('C[C@H](Nc1ncnc(N)c1C#N)c1cc2ncc(Cl)n2nc1-c1ccccc1 [Amdizalisib]', '%', 13.5);

----------
target: OAT1 (Homo sapiens); test: in vitro; conditions: human, pH 7.4
Sequence (Q4U2R8 whole entry): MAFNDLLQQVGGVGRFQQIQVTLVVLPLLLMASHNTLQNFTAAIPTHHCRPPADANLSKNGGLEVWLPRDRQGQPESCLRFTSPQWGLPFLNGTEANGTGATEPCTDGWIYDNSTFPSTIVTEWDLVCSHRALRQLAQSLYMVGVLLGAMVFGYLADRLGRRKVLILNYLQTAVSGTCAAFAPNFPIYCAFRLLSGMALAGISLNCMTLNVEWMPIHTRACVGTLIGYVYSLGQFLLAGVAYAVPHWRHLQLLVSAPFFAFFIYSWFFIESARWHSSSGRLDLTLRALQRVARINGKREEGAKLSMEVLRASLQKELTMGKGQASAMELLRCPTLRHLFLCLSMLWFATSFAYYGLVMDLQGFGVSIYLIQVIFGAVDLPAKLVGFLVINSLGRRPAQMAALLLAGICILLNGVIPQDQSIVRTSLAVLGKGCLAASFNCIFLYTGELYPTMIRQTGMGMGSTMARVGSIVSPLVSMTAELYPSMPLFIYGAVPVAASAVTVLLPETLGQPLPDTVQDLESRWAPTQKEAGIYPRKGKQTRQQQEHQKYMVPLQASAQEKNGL
VALUE KIND: inhibition at 2 min, 3 µM (%)

INSERT INTO measurements (chemical_smiles, value_kind, observed_measurement) VALUES
  ('C[C@H](Nc1ncnc(N)c1C#N)c1cc2ncc(Cl)n2nc1-c1ccccc1', 'inhibition at 2 min, 3 µM', 49.1);

----------
assay: Caco-2 bidirectional transport permeability; format: in vitro ADME, human; settings: human
VALUE KIND: Papp A→B at 30 min, 10 µM (×10⁻⁶ cm/s)

INSERT INTO results (compound, observed_measurement) VALUES
  ('C[C@H](Nc1ncnc(N)c1C#N)c1cc2ncc(Cl)n2nc1-c1ccccc1 [Amdizalisib]', 45.7);

----------
assay: Metabolic stability in dog liver microsomes; assay type: in vitro ADME; conditions: pH 7.4; male dog liver microsomes, normal; read-out: in vitro t1/2
VALUE KIND: half-life at 1 µM (h)

INSERT INTO measurements (compound, observed_measurement) VALUES
  ('C[C@H](Nc1ncnc(N)c1C#N)c1cc2ncc(Cl)n2nc1-c1ccccc1 [Amdizalisib]', 1.6);
